- system: proMMP9(67-444;ΔFnII) (SEQ ID NO:5) (Homo sapiens, UniProt P14780, DEL216-390)
- Construct: start methionine (N)
- Sequence (P14780 with tags, fused parts or gaps DEL216-390): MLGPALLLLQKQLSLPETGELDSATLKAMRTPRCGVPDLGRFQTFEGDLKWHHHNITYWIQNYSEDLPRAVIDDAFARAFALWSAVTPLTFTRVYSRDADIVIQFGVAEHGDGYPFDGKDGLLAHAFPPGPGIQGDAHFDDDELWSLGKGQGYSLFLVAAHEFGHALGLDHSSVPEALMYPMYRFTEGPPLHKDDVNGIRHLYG
- assay.details: ThermoFluor binding assay with proMMP9(67-444;ΔFnII)
pKd: −log10 of the molar value.
Each record here notes measured pKd.
property: pKd

[
  {
    "smiles.input": "CCn1c(C)nc2ccc3sc(Nc4cc(S(N)(=O)=O)ccc4OC(C)C)nc3c21",
    "system": "proMMP9(67-444;ΔFnII) (SEQ ID NO:5) (Homo sapiens, UniProt P14780, DEL216-390)",
    "test.value": 6.07
  },
  {
    "smiles.input": "Nc1nc2c(ccc3sc(Nc4cccc(C(=O)O)c4)nc32)[nH]1",
    "system": "proMMP9(67-444;ΔFnII) (SEQ ID NO:5) (Homo sapiens, UniProt P14780, DEL216-390)",
    "test.value": 5.00
  },
  {
    "smiles.input": "Cn1cnc2c3nc(Nc4ccc(C#N)cc4OC(F)(F)F)sc3ccc21",
    "system": "proMMP9(67-444;ΔFnII) (SEQ ID NO:5) (Homo sapiens, UniProt P14780, DEL216-390)",
    "test.value": 6.17
  },
  {
    "smiles.input": "Cc1nc2c(ccc3sc(Nc4cc(C(=O)O)ccc4OC(C)C)nc32)[nH]1",
    "system": "proMMP9(67-444;ΔFnII) (SEQ ID NO:5) (Homo sapiens, UniProt P14780, DEL216-390)",
    "test.value": 6.72
  },
  {
    "smiles.input": "CC(C)Oc1ccc(C(N)=O)cc1Nc1nc2c(ccc3nc(N)sc32)s1",
    "system": "proMMP9(67-444;ΔFnII) (SEQ ID NO:5) (Homo sapiens, UniProt P14780, DEL216-390)",
    "test.value": 6.39
  },
  {
    "smiles.input": "Cc1nc2ccc3sc(Nc4cc(F)ccc4OC(C)C)nc3c2n1C",
    "system": "proMMP9(67-444;ΔFnII) (SEQ ID NO:5) (Homo sapiens, UniProt P14780, DEL216-390)",
    "test.value": 6.09
  },
  {
    "smiles.input": "COc1ccc(Nc2nc3c(ccc4c3ncn4C)s2)c(OC)c1",
    "system": "proMMP9(67-444;ΔFnII) (SEQ ID NO:5) (Homo sapiens, UniProt P14780, DEL216-390)",
    "test.value": 5.47
  },
  {
    "smiles.input": "COc1ccccc1Nc1nc2c(ccc3[nH]c(NC(C)=O)nc32)s1",
    "system": "proMMP9(67-444;ΔFnII) (SEQ ID NO:5) (Homo sapiens, UniProt P14780, DEL216-390)",
    "test.value": 6.00
  },
  {
    "smiles.input": "CC(C)Oc1ccc(S(C)(=O)=O)cc1Nc1nc2c(ccc3ncn(CC(F)(F)F)c32)s1",
    "system": "proMMP9(67-444;ΔFnII) (SEQ ID NO:5) (Homo sapiens, UniProt P14780, DEL216-390)",
    "test.value": 6.19
  },
  {
    "smiles.input": "CC(C)Oc1ccc(F)cc1Nc1nc2c(ccc3c2ncn3C)s1",
    "system": "proMMP9(67-444;ΔFnII) (SEQ ID NO:5) (Homo sapiens, UniProt P14780, DEL216-390)",
    "test.value": 6.17
  },
  {
    "smiles.input": "CC(C)Oc1ccc(C(N)=O)cc1Nc1nc2c(ccc3ccncc32)s1",
    "system": "proMMP9(67-444;ΔFnII) (SEQ ID NO:5) (Homo sapiens, UniProt P14780, DEL216-390)",
    "test.value": 6.11
  },
  {
    "smiles.input": "COc1ccc(S(N)(=O)=O)cc1Nc1nc2c(ccc3cnccc32)s1",
    "system": "proMMP9(67-444;ΔFnII) (SEQ ID NO:5) (Homo sapiens, UniProt P14780, DEL216-390)",
    "test.value": 5.21
  },
  {
    "smiles.input": "COC(=O)c1ccc(OC)c(Nc2nc3c(ccc4c3ncn4C)s2)c1",
    "system": "proMMP9(67-444;ΔFnII) (SEQ ID NO:5) (Homo sapiens, UniProt P14780, DEL216-390)",
    "test.value": 6.07
  },
  {
    "smiles.input": "COc1ccc(S(=O)(=O)N(C)C)cc1Nc1nc2c(ccc3c2ncn3C)s1",
    "system": "proMMP9(67-444;ΔFnII) (SEQ ID NO:5) (Homo sapiens, UniProt P14780, DEL216-390)",
    "test.value": 5.66
  },
  {
    "smiles.input": "COc1ccccc1Nc1nc2c(ccc3[nH]c(N)nc32)s1",
    "system": "proMMP9(67-444;ΔFnII) (SEQ ID NO:5) (Homo sapiens, UniProt P14780, DEL216-390)",
    "test.value": 6.54
  },
  {
    "smiles.input": "Cc1nc2c3nc(Nc4cnccc4OC(C)C)sc3ccc2n1C",
    "system": "proMMP9(67-444;ΔFnII) (SEQ ID NO:5) (Homo sapiens, UniProt P14780, DEL216-390)",
    "test.value": 7.85
  },
  {
    "smiles.input": "COc1ccc(Br)cc1Nc1nc2c(ccc3c2ncn3C)s1",
    "system": "proMMP9(67-444;ΔFnII) (SEQ ID NO:5) (Homo sapiens, UniProt P14780, DEL216-390)",
    "test.value": 6.66
  }
]
